Each item that follows carries a reported shrunken log2 fold change.
System: Escherichia coli TOP10
Experiment: shrunken log2 fold change of peptide-encoding DNA abundance (4.5 h post-induction vs induction); higher = less antimicrobial activity (less host growth inhibition)
Conditions: time post-induction: 4.5 h; library: site-saturation at positions 5, 18, 19, 20
PARAMETER MEASURED: shrunken log2 fold change

RRIRHRPPRLPRPRPRPGMNPRP	0.00489
RRIRNRPPRLPRPRPRPFLMPRP	-0.0732
RRIRGRPPRLPRPRPRPANGPRP	0.378

---

Each item that follows carries a reported shrunken log2 fold change.
System: Escherichia coli TOP10
Test: shrunken log2 fold change of peptide-encoding DNA abundance (4.5 h post-induction vs induction); higher = less antimicrobial activity (less host growth inhibition)
Conditions: time post-induction: 4.5 h; library: site-saturation at positions 5, 18, 19, 20
PARAMETER MEASURED: shrunken log2 fold change

RRIRSRPPRLPRPRPRPFMIPRP	-0.184
RRIRMRPPRLPRPRPRPTHPPRP	0.564
RRIRVRPPRLPRPRPRPKHRPRP	0.356
RRIRMRPPRLPRPRPRPTNCPRP	0.0955
RRIRCRPPRLPRPRPRPRWWPRP	0.718
RRIRDRPPRLPRPRPRPDGFPRP	0.0291
RRIRIRPPRLPRPRPRPGKHPRP	-0.222
RRIRRRPPRLPRPRPRPLTEPRP	0.793
RRIRPRPPRLPRPRPRPSNIPRP	-1.15
RRIRDRPPRLPRPRPRPWEVPRP	-0.0135
RRIRARPPRLPRPRPRPSGLPRP	0.0354
RRIRNRPPRLPRPRPRPLYAPRP	-0.0693
RRIRMRPPRLPRPRPRPFDYPRP	-0.16
RRIRNRPPRLPRPRPRPLHVPRP	0.251
RRIRFRPPRLPRPRPRPTCYPRP	-0.23
RRIRLRPPRLPRPRPRPMLWPRP	0.00318
RRIRLRPPRLPRPRPRPHLMPRP	-0.218
RRIRTRPPRLPRPRPRPSCPPRP	-0.444
RRIRPRPPRLPRPRPRPKNAPRP	-0.0349
RRIRTRPPRLPRPRPRPEDQPRP	0.112
RRIRGRPPRLPRPRPRPAQGPRP	0.313
RRIRLRPPRLPRPRPRPDFYPRP	-0.324
RRIRYRPPRLPRPRPRPFAEPRP	-0.509
RRIRMRPPRLPRPRPRPCWSPRP	0.349
RRIRIRPPRLPRPRPRPVGSPRP	0.36
RRIRSRPPRLPRPRPRPSISPRP	-0.584

---

System: Escherichia coli TOP10
Test: shrunken log2 fold change of peptide-encoding DNA abundance (4.5 h post-induction vs induction); higher = less antimicrobial activity (less host growth inhibition)
Details: time post-induction: 4.5 h; library: site-saturation at positions 5, 18, 19, 20
PARAMETER MEASURED: shrunken log2 fold change

RRIRMRPPRLPRPRPRPVWCPRP	-0.0672
RRIRGRPPRLPRPRPRPSHYPRP	-0.0921
RRIRWRPPRLPRPRPRPWIVPRP	-0.337
RRIRVRPPRLPRPRPRPTVHPRP	-0.0675
RRIRKRPPRLPRPRPRPETVPRP	0.0854
RRIRQRPPRLPRPRPRPVDMPRP	-0.108
RRIRYRPPRLPRPRPRPLREPRP	0.483
RRIRFRPPRLPRPRPRPIFTPRP	-0.128
RRIRPRPPRLPRPRPRPVAAPRP	0.406
RRIRKRPPRLPRPRPRPAPAPRP	1.05
RRIRLRPPRLPRPRPRPSWDPRP	-0.0231
RRIRNRPPRLPRPRPRPYHPPRP	-0.135
RRIRGRPPRLPRPRPRPGSNPRP	0.0237
RRIRPRPPRLPRPRPRPKYIPRP	-0.433
RRIRQRPPRLPRPRPRPFPWPRP	-0.0901
RRIRRRPPRLPRPRPRPHDAPRP	0.197
RRIRSRPPRLPRPRPRPYYPPRP	-2.8
RRIRGRPPRLPRPRPRPSTPPRP	0.468
RRIRTRPPRLPRPRPRPIMTPRP	-0.0418
RRIRTRPPRLPRPRPRPNYKPRP	-0.823
RRIRVRPPRLPRPRPRPLQYPRP	1.72
RRIRPRPPRLPRPRPRPYTQPRP	-0.608
RRIRWRPPRLPRPRPRPMMLPRP	0.309
RRIRIRPPRLPRPRPRPKSLPRP	0.0615
RRIRGRPPRLPRPRPRPPRKPRP	1.26
RRIRMRPPRLPRPRPRPTYAPRP	0.0341
RRIRCRPPRLPRPRPRPIDCPRP	-0.128
RRIRRRPPRLPRPRPRPWHMPRP	0.0729
RRIRERPPRLPRPRPRPANEPRP	-0.916
RRIRYRPPRLPRPRPRPTFFPRP	-0.0709
RRIRSRPPRLPRPRPRPNWKPRP	0.00354
RRIRMRPPRLPRPRPRPYYCPRP	-0.603
RRIRARPPRLPRPRPRPVRAPRP	0.924
RRIRVRPPRLPRPRPRPCDVPRP	0.0119
RRIRKRPPRLPRPRPRPIFPPRP	0.319
RRIRARPPRLPRPRPRPANCPRP	0.186
RRIRGRPPRLPRPRPRPRAKPRP	1.22
RRIRMRPPRLPRPRPRPTPRPRP	1.46

---

Each item that follows carries a reported shrunken log2 fold change.
Tested on: Escherichia coli TOP10;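 also: peptides expressed intracellularly from a pBAD plasmid library in pooled LB shake-flask culture, induced with 0.3% L-arabinose, DNA abundance read by NGS, three biological replicates, DESeq2 with apeglm shrinkage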
Test: shrunken log2 fold change of peptide-encoding DNA abundance (4.5 h post-induction vs induction); higher = less antimicrobial activity (less host growth inhibition)
Conditions: time post-induction: 4.5 h; library: site-saturation at positions 5, 18, 19, 20
PARAMETER MEASURED: shrunken log2 fold change

RRIRMRPPRLPRPRPRPGVQPRP	0.16
RRIRCRPPRLPRPRPRPTTHPRP	-0.0573
RRIRARPPRLPRPRPRPYATPRP	0.0217
RRIRRRPPRLPRPRPRPCGDPRP	0.478
RRIRDRPPRLPRPRPRPLPTPRP	0.358
RRIRLRPPRLPRPRPRPMHIPRP	0.0952
RRIRNRPPRLPRPRPRPIEMPRP	-0.141
RRIRNRPPRLPRPRPRPVSLPRP	-0.396
RRIRKRPPRLPRPRPRPQTGPRP	0.0141
RRIRNRPPRLPRPRPRPEIWPRP	0.0992
RRIRKRPPRLPRPRPRPMCMPRP	-0.169
RRIRRRPPRLPRPRPRPPQFPRP	0.864
RRIRDRPPRLPRPRPRPGQTPRP	0.032
RRIRVRPPRLPRPRPRPIEYPRP	-0.05
RRIRYRPPRLPRPRPRPLPEPRP	-0.323
RRIRSRPPRLPRPRPRPMSSPRP	-0.313
RRIRPRPPRLPRPRPRPEGQPRP	0.798
RRIRARPPRLPRPRPRPFLPPRP	-0.379
RRIRSRPPRLPRPRPRPMTHPRP	-0.469
RRIRCRPPRLPRPRPRPIKDPRP	-0.533
RRIRSRPPRLPRPRPRPCCCPRP	-0.000964
RRIRTRPPRLPRPRPRPSEAPRP	0.0182
RRIRPRPPRLPRPRPRPHMDPRP	-0.374
RRIRDRPPRLPRPRPRPDVRPRP	0.0212
RRIRHRPPRLPRPRPRPAFTPRP	-0.311
RRIRRRPPRLPRPRPRPTHLPRP	0.578
RRIRGRPPRLPRPRPRPQIPPRP	0.25
RRIRYRPPRLPRPRPRPLIIPRP	-1.2
RRIRARPPRLPRPRPRPFKMPRP	-0.253
RRIRSRPPRLPRPRPRPSRTPRP	0.822
RRIRTRPPRLPRPRPRPAKTPRP	0.117
RRIRPRPPRLPRPRPRPAIGPRP	-0.0136
RRIRLRPPRLPRPRPRPRMYPRP	-0.166
RRIRWRPPRLPRPRPRPWDHPRP	-0.0185
RRIRGRPPRLPRPRPRPAAKPRP	1.02
RRIRIRPPRLPRPRPRPPNQPRP	-0.0959
RRIRRRPPRLPRPRPRPKKCPRP	-0.325
RRIRRRPPRLPRPRPRPAINPRP	-0.0133
RRIRNRPPRLPRPRPRPWGCPRP	-0.00572
RRIRKRPPRLPRPRPRPEQNPRP	0.949
RRIRNRPPRLPRPRPRPPILPRP	0.144
RRIRKRPPRLPRPRPRPAWKPRP	-0.116
RRIRLRPPRLPRPRPRPWLIPRP	-0.00228
RRIRWRPPRLPRPRPRPIATPRP	0.435
RRIRPRPPRLPRPRPRPWCDPRP	-0.301
RRIRYRPPRLPRPRPRPIHIPRP	-0.0433
RRIRIRPPRLPRPRPRPVLLPRP	-0.03
RRIRKRPPRLPRPRPRPWNWPRP	-0.00973
